readout-name: melting point

compound | reported-result
NC(=O)c1sc2nc(N3CCC(NCC(O)c4ccc5ccccc5n4)CC3)cc(C(F)(F)F)c2c1N (stereo not drawn) | 198 to 201 °C
C[C@H]1C[C@H](OC(=O)C(C)(C)Oc2ccc(CCNC(=O)c3ccc(Cl)cc3)cc2)CC(C)(C)C1 (relative stereo) | 100 °C
CNC(C)CN1CCc2c(c(=O)oc3cc(OC)c(OC)cc23)C1 (stereo not drawn) | 137 to 139 °C
Cc1nn(-c2ccc(Cl)nn2)c(C)c1Br | 143 to 145 °C
O=C1Nc2cc(C(F)(F)F)ccc2N2CCN(CCc3ccncc3)CC12 (stereo not drawn) | 204 to 206 °C
CCOC(=O)Cc1ccc(NC(=O)C(COc2cccnc2)NS(=O)(=O)c2ccc(Cl)cc2)cc1 (racemic) | 136 to 139 °C
c1cc(Oc2cnccn2)c2cc[nH]c2c1 | 192 to 193 °C
COc1c(C2CCN(CCCCNC(=O)c3ccc(-c4ccc(C#N)nc4)cc3)CC2)ccc2c1CCCC2 | 179 to 181 °C
COc1ccc(-c2cc(Cl)c3cc(O)c(Br)cc3c2)cc1 | 138 to 139 °C
COc1c(C)cc(C)c2c1C(=O)C1CCCCC21 (stereo not drawn) | 72 to 74 °C
Cc1c(SCCCSCc2ccc(Cl)s2)ccnc1CNc1cnc2ccccc2c1 | 127 to 131 °C
CC(=O)Oc1c(C)c2c(c(C)c1OC(C)=O)SC(C)O2 (stereo not drawn) | 82 to 84 °C
Oc1ccc(C2=C(c3ccc(OCCCCCSCCCC(F)(F)C(F)(F)F)cc3)c3ccc(O)cc3CCC2)cc1 | 157 to 158 °C
Cc1ccnc(-n2ccnc2S(=O)Cc2ccccc2N(C)C)c1 (stereo not drawn) | 127 to 129 °C
Cc1ccc(NC(=O)C=Cc2ccccc2)cc1NC(=O)C=Cc1ccccc1 | 217 to 219 °C
c1ccc(SCc2cc3ccccc3[nH]2)cc1 | 100 to 102 °C
Cc1noc(NS(=O)(=O)c2ccccc2-c2ccc(-c3ncco3)cc2CN(C(=O)C(C)C)C2CC2)c1C | 110 to 120 °C
N#CC1CCN(C(=O)c2ccc3nonc3c2)CC1 | 104 to 107 °C
O=C(Nc1cc(C2OCCCO2)ccc1O)c1ccccc1OCCCCc1ccccc1 | 122 to 123 °C
COc1ccccc1OCC1(COc2ccccc2OC)NC(C(=O)O)CS1 (stereo not drawn) | 160 to 162 °C
Cc1c(C(N)=O)c2ccccc2n2c(N3CCCC3)nc(-c3noc(C(C)C)n3)c12 | 173 to 174 °C
COc1ccccc1N1CCN(CCCNC(=O)c2cc(N)cc3c(=O)c(C)c(-c4ccccc4)oc23)CC1 | 218 to 219 °C
CNc1nc(-c2cccc(NC(=O)c3cccc(OCc4ccccc4)c3)c2)c2cc(OC)c(OC)cc2n1 | 110 to 112 °C
CC1CCC(NC(=O)NS(=O)(=O)c2ccc(CCNC(=O)N3CC4CCCCC4C3=O)cc2)CC1 (stereo not drawn) | 153 to 155 °C
COC(=O)C1CCCn2c(=O)n(CC(=O)OCc3ccccc3)c(=O)n21 (stereo not drawn) | 103 to 106 °C
N#CC1CN1Cc1ccc(C(=O)O)s1 (stereo not drawn) | 108 to 111 °C
Cc1c(C)c2c(c(C)c1O)C(=O)CC(CCC(C)CCCC(C)C)(COc1ccc([N+](=O)[O-])cc1)O2 (stereo not drawn) | 121 to 123 °C
COc1cc2c(cc1Nc1ncc(Cl)c(N[C@@H]3CCCC[C@H]3NS(C)(=O)=O)n1)CCN(CCS(C)(=O)=O)CC2 | 216 to 235 °C

----------
Entries and their melting point values follow.

molecule | melting point
Nc1nc(Nc2ccccc2)sc1C(=O)c1cccs1 | 84 to 85 °C
CCOC(=O)CC1(Cc2ccncc2)C(=O)N(N2CCOCC2)c2ccccc21 (centres undefined) | 168 °C
Fc1cccc(F)c1C(C1=NOCCO1)N1CCc2sccc2C1 (centres undefined) | 151 to 153 °C
O=Cc1ccc(N(Cc2ccccc2)Cc2ccccc2)cc1[N+](=O)[O-] | 67 to 70 °C
COC(=O)c1cc(=O)c2ccc(OCC(O)COc3cccc(O)c3C(C)=O)cc2[nH]1 (centres undefined) | 192 to 194 °C
Cc1[nH]n(C)c2nc(-c3ccncc3)nc(=O)c1-2 | > 301 °C
Cc1cc(C)c(Oc2cccc(C#N)c2C#N)c(C)c1 | 151 to 153 °C
COC(=O)C[C@H](Cc1ccccc1)NC(=O)OCC(C)C | 50 to 52 °C
CS(=O)(=O)N(c1ccc(CN2N=C(c3ccc(Cl)cc3)c3ccccc3-n3cnnc32)cc1)S(C)(=O)=O | 220 to 221 °C
COC(=O)C1Cc2ccc([N+](=O)[O-])cc2CN1 (centres undefined) | 133 to 135 °C
COC(=O)[C@@H](NC(=O)OCc1ccccc1)C(C)C | 54 to 56 °C
CCNC(=O)N1CCC(c2[nH]nc3c2C(=O)c2c(NC(=O)NN4CCOCC4)cccc2-3)CC1 | 215 to 216 °C
O=C1NCCc2c(-c3ccc(F)c(Cl)c3)[nH]c3cccc1c23 | 234 to 235 °C
CNC(=NC#N)NCCSCc1csc(NC(=S)NCC(F)(F)F)n1 | 157 to 158 °C
C1=Cc2ccc3c(c2CC1)=C1CC=c2ccccc2=C1N=3 | 218 °C
NC(=S)NN=C(CCCOC(=O)NCc1ccccc1)c1ccccc1 | 137 to 140 °C
CSc1c2c3c(cccc3n1C)C1C=C(C)CN(C)C1C2 (centres undefined) | 115 to 116 °C
NC(=O)c1ccc(C(=O)O)c(N)c1 | 276 to 278 °C
COc1cc(OC)nc(C2(C#N)OC(=O)c3c(Cl)ccc(Cl)c32)n1 (centres undefined) | 123 to 126 °C
O=c1c2ccccc2nc(-c2cc(-c3ccncc3)c(N3CCOCC3)s2)n1-c1ccccc1 | 230 to 231 °C
CCSC1CN2CCC1CC2 (centres undefined) | 101 to 102 °C
O=S(=O)(CCl)N(Cc1cccnc1)c1ccc(Cl)cc1 | 98 to 100 °C
CC(C)Sc1ccc(NC(=O)C2(C)CC2)cc1C(F)(F)F | 103 to 105 °C
CC(C)(C)c1cc(C(=O)O)c(Cl)c(C(=O)O)c1 | 250 °C

----------
Entries and their melting point values follow.
readout-name: melting point

molecule | readout-name | reported-result
CNC(=O)[C@@H](NC(=O)Nc1n[nH]c(=S)s1)C(C)OCc1ccccc1 (stereo not given in full) | melting point | 187 to 189 °C
O=CNN(C1=NCCS1)c1ccccc1 | melting point | 140 to 141 °C
CC(C)(C)OC(=O)N[C@H](Cc1ccccc1)C(=O)N1CCC[C@H]1C(=O)NCc1ccc(C#N)nc1 | melting point | 167 to 170 °C
Oc1ccc(-c2nc(-c3ccccc3)nc(-c3ccc(O)cc3O)n2)c(O)c1 | melting point | 250 to 252 °C
CCOC(=O)Cc1ccc(-c2ccc(-c3ccccc3)cc2)o1 | melting point | 77 to 78 °C

----------
Entries and their melting point values follow.

molecule | melting point
CS(=O)(=O)CCCCC(Cc1ccccc1)S(=O)(=O)c1ccc(Cl)cc1 (centres undefined) | 68 to 70 °C
O=C1Nc2ccc(C(c3ccc(Cl)cc3)n3ccnc3)cc2C(c2cccc(Cl)c2)N1 (centres undefined) | 177 °C
O=C(OCC(=O)N1CCCC1=O)c1ccccc1 | 83 to 84 °C
Cc1cc(Cl)c(OCCO)cc1Nc1nnc2n1[C@H](c1ccc(F)cc1)COC2 | 161 to 162 °C
CCNc1cccc(-c2ccnc3c(C(=O)c4cccs4)cnn23)c1 | 154 to 155 °C
COc1cc(Nc2c(C#N)cnc3cc(C)sc23)c(Cl)cc1Cl | 213 to 214 °C
CCOC(=O)COc1cc(OC)cc2c1c1c(n2Cc2ccccc2)CCCC1C(N)=O (centres undefined) | 167 to 169 °C
CC(C)(C)OC(=O)N[C@@H](Cc1ccc(O)cc1)C(=O)NCC(=O)NCC(=O)Oc1c(Cl)c(Cl)c(Cl)c(Cl)c1Cl | 186 °C
Clc1ccc(-c2nc3cccnc3[nH]2)cc1 | 305 to 308 °C
N#Cc1nccc2cccc(-n3cccc3)c12 | 178 °C
Fc1cccc(OC2CN([C@H]3CC[C@@H](c4c[nH]c5ccc(F)cc54)CC3)C2)c1 | 119 to 125 °C
COc1ccc2nc3ccc(C(=O)N(C)C)cn3c(=O)c2c1 | 190 to 196 °C
COc1ccc(Sc2ccncc2)c([N+](=O)[O-])c1 | 57 to 59 °C
CCCCC(=O)Nc1ccc(C(=O)OC)cc1[N+](=O)[O-] | 106 to 107 °C

----------
Entries and their melting point values follow.
readout-name: melting point

compound | reported-result
CCCc1nc(NC)n2ncc(C(=O)c3ccccc3Cl)c2n1 | 116 to 118 °C
COc1cc(C(=O)NS(=O)(=O)c2ccccc2)ccc1CN1CCOc2ccc(NC(=O)CC3CCCC3)cc21 | 190 to 192 °C
CC(=O)N(c1nc2cc3nc(N(C(C)=O)N4CCCCC4C)sc3cc2s1)N1CCCCC1C (stereo unspecified) | 242 to 245 °C
Oc1ccc2cc(-c3nc4cc(O)ccc4o3)ccc2c1 | 288 to 290 °C
Cc1c(C)c2c(c(C)c1O)C(=O)C(C)(C)O2 | 142 to 144 °C
CCNC(=O)c1ccccc1-c1ccccc1 | 77 to 79 °C
